Where these numbers come from: paper PMC2367452

- ASSAYED_SYSTEM: HOXA13 DNA-binding domain peptide (A13-DBD) (UniProt Q62424 320-386)
- Sequence (Q62424 320-386): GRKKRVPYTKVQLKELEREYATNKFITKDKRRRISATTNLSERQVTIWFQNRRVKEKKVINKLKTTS
- TEST_DESCRIPTION: fluorescence anisotropy; abstract gives range 27-42 nM; FP: 1 nM fluorescein-labeled hairpin, 0-200 nM HOXA13-DBD, 15 C, buffer per ref 71 (not given); EMSA: Promega Gel Shift Binding System
- RUN_PARAMETERS: protein: recombinant, label: fluorescein, CCCCCCC-region loop
pKd: −log10 of the molar value.
MEASUREMENT_LABEL: pKd

• CTTATTATTAAAGGCCCCCCCTTTAATAATAAG (structured_DNA) [Foxf1 hairpin] = 7.32
